Assay system: Mouse soluble TWEAK (mouse) (UniProt O54907)
Method notes: receptor interaction ELISA: antibody pre-incubated with mouse soluble TWEAK, binding to coated mouse Fn14:Fc
Quantity name: IC50 (ng/mL)

INSERT INTO measurements (binder, quantity_name, numeric_result) VALUES
  ('Antibody 22 (antibody, V domains shown) VH: QVQLQESGPGLVKPSETLSLTCAVSGYSIRSGYWWSWIRQPPGKGLEWIGQIYNKGNTDNSPSLKSRVTISVDTSKNQFSLKLSSVTAADTAVYYCARVFWDDAYFDVWGQGTMVTVSS VL: EIVLTQSPGTLSLSPGERATLSCKASQSVSIGPIHLMHWYQQKPGQAPRLLIYGASNPESGIPDRFSGSGSGTDFTLTISRLEPEDFAVYYCQQGKESPRTFGQGTKLEIK', 'IC50', 5),
  ('Antibody 20 (antibody, V domains shown) VH: QVQLQESGPGLVKPSETLSLTCAVSGYSIRSGYWWSWIRQQPGKGLEWIGQIYNKGNTDNSPSLKSQVTISVDTSKNQFSLKLSSVTAADTAVYYCARVFWDDAYFDVWGQGTMVTVSS VL: EIVLTQSPATLSLSPGERATLSCKASQSVSIGPIHLMHWYQQKPGQAPRLLIYGASNPESGIPARFSGSGSGTDFTLTISSLEPEDFAVYYCQQGKESPRTFGQGTKLEIK', 'IC50', 14),
  ('Antibody 17 (antibody, V domains shown) VH: QVQLQESGPGLVKPSETLSLTCTVSGYSIRSGYWWSWIRQPPGKGLEWIGQIYNKGNTDNNPALKSRVTISVDTSKNQFSLKLSSVTAADTAVYYCARVFWDDAYFDVWGQGTMVTVSS VL: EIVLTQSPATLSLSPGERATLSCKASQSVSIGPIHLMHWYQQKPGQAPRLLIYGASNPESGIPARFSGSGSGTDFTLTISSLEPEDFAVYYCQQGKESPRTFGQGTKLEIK', 'IC50', 6);

Values were extracted from patent US20100255008A1.
